Assay: Metabolic stability in minipig liver microsomes assessed as intrinsic clearance
Type: ADME, Sus scrofa domesticus, Microsome
Details: pig, read-out: CLH
MEASURED QUANTITY: microsomal CLint (µL/min/mg)
Express it in µL/min/mg; write the number only.

Q) Could you tell me which microsomal CLint is on file for Cc1ncc(-c2nc3c(OC4(C)CC4)nc(Nc4cnn(C5CCN(C)CC5)c4)nc3cc2F)cn1 ?
A) 18

====

# Lookup of reported microsomal CLint keyed by entry
Experiment: Metabolic stability in human liver microsomes assessed as intrinsic clearance
Assay type: ADME, Microsome
Details: read-out: CLH

Consider the worked cases shown below.
[
  {
    "SUBSTANCE SMILES": "Cc1ccc2nc(Nc3cnn(C4CCN(C)CC4)c3)nc(OC3(C)CC3)c2n1",
    "microsomal CLint": "18 µL/min/mg"
  },
  {
    "SUBSTANCE SMILES": "Cc1ncc(-c2nc3c(NC(C)C)nc(Nc4cnn(C5CC6(C5)CN(C)C6)c4)nc3cc2F)cn1",
    "microsomal CLint": "< 3 µL/min/mg"
  },
  {
    "SUBSTANCE SMILES": "CN1CCC(n2cc(Nc3nc(OC4(C)CC4)c4nc(C5CC5)ccc4n3)cn2)CC1",
    "microsomal CLint": "37 µL/min/mg"
  }
]

Q) Given the molecule Cc1ncc(-c2nc3c(OC4(C)CC4)nc(Nc4cnn([C@@H]5C[C@@H]6C[C@H]5CN6C)c4)nc3cc2F)cn1 , what is its reported microsomal CLint?
A) 15 µL/min/mg

Q) Give its microsomal CLint value. Item: CN1CCC(n2cc(Nc3nc(OC4(C)CC4)c4nc(-c5cncnc5)c(F)cc4n3)cn2)CC1
A) 88 µL/min/mg
